assay: UV thermal melting temperatures of TNA 12-mer duplexes; assay type: physicochemical; settings: 1×PBS, relative to unmodified duplex
d = 2'-deoxy (DNA); f = 2'-fluoro
endpoint-label: ΔTm (° C.)
Dear colleague, please send the value followed by its unit.

Recorded ΔTm (° C.), per entry:
substance	endpoint-label	reported-value
AD-649414.1 (sense UACAGUCUAUGU; antisense ACAUAGACUGUA; chemistry not fully specified)	ΔTm (° C.)	0.45 °C
AD-64367.4 (sense TACAGTCTATGT; antisense ACATAGACTGTA; DNA, backbone not given here)	ΔTm (° C.)	0 °C
AD-649411.1 (sense UACAGUCUAUGU; antisense ACAUAGACUGUA; chemistry not fully specified)	ΔTm (° C.)	−11 °C
AD-72586.2 (sense TACAGTCTATGT; antisense ACATAGACTGTA; siRNA; chemistry not fully specified)	ΔTm (° C.)	2.1 °C
AD-72585.2 (sense UACAGTCUAUGU; antisense ACAUAGACUGUA; siRNA; one TNA thymine in sense strand, plain letters not given here, further chemistry not given here)	ΔTm (° C.)	−4.825 °C

Now turn to the next substance.
## Input // ΔTm (° C.) lookup, key: AD-649425.1 (sense TACAGUCTATGT; antisense ACATAGACTGTA; sense: sugars from the 5' end d5 f1 d6, backbone not given here; antisense: sugars from the 5' end d6 f1 d5, backbone not given here)
## Output −2.5 °C
